Values compiled from patent US12421253B2.

Biological target: KRas^G12D (Homo sapiens, UniProt P01116, G12D)
Construct: […]; biotin (biotinylated)
Sequence (P01116 1-169 isoform P01116-2 G12D): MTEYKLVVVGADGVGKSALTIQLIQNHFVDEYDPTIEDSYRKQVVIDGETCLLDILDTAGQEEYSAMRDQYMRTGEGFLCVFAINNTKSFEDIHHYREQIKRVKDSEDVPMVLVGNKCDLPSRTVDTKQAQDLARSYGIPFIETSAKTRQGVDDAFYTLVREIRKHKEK
Test: KRas binding assay (TR-FRET displacement of Cy5 labelled tracer)
pIC50: −log10 of the molar value.
QUANTITY MEASURED: pIC50

| COMPOUND | MEASURED ON | LT GT EQ | NUMERIC VALUE |
| --- | --- | --- | --- |
| Oc1cc(N2CCc3c(nc(OC[C@@]45CCCN4C[C@H](F)C5)nc3N3CC4CC(O)C(C4)C3)C2)c2c(Br)c(F)ccc2c1 (stereo partly shown) | KRas^G12D (Homo sapiens, UniProt P01116, G12D) | = | 8.00 |
| CCc1c(F)ccc2cc(O)cc(N3CCc4c(nc(OC[C@@]56CCCN5C[C@H](F)C6)nc4N4CCCCCC(S(C)(=O)=O)C4)C3)c12 (stereo partly shown) | KRas^G12D (Homo sapiens, UniProt P01116, G12D) | = | 8.30 |
| CCc1cccc2cccc(N3CCc4c(nc(OCC56CCCN5CCC6)nc4N4CCCn5nc(C)cc5C4)C3)c12 | KRas^G12D (Homo sapiens, UniProt P01116, G12D) | = | 6.06 |
| CCc1cccc2cccc(N3CCc4c(nc(OCC56CCCN5CCC6)nc4N4CCCC(c5nc(C)c(C(=O)NC6CCC6)o5)C4)C3)c12 (stereo not shown) | KRas^G12D (Homo sapiens, UniProt P01116, G12D) | = | 5.28 |
| CCc1cccc2cccc(N3CCc4c(nc(OCC56CCCN5CCC6)nc4N4C[C@@H](C)C[C@@H](O)C4)C3)c12 | KRas^G12D (Homo sapiens, UniProt P01116, G12D) | = | 6.22 |
| CCc1c(F)ccc2cc(O)cc(N3CCc4c(nc(OC[C@@]56CCCN5C[C@H](F)C6)nc4N4CCOCC(O)C4)C3)c12 (stereo partly shown) | KRas^G12D (Homo sapiens, UniProt P01116, G12D) | ≥ | 8.70 |
| CCc1cccc2cccc(N3CCc4c(nc(OCC56CCCN5CCC6)nc4N4CCCC(n5cccn5)C4)C3)c12 (stereo not shown) | KRas^G12D (Homo sapiens, UniProt P01116, G12D) | = | 5.95 |

* * *

Tested on: MKN1 cells, pERK
Assay: Inhibition of KRas phosphorylation of ERK (Cisbio HTRF Advanced pERK assay)
Type: cell-based
Conditions: Homo sapiens, MKN-1, 3 h, read-out: Inhibition (HTRF IC50 nM) of KRas-mediated Phosphorylation of ERK, MKN1
Items are presented alongside their recorded log10 IC50.
QUANTITY MEASURED: log10 IC50 (log10 of the value in nM)

| COMPOUND | NUMERIC VALUE |
| --- | --- |
| Oc1cc(N2CCc3c(nc(OC[C@@]45CCCN4C[C@H](F)C5)nc3N3CC4CC(O)C(C4)C3)C2)c2c(Br)c(F)ccc2c1 (stereo partly drawn) | 2.31 |
| CCc1c(F)ccc2cc(O)cc(N3CCc4c(nc(OC[C@@]56CCCN5C[C@H](F)C6)nc4N4CC5CC(O)C(C5)C4)C3)c12 (stereo partly drawn) | 1.52 |
| CCc1c(F)ccc2cc(O)cc(N3CCc4c(nc(OC[C@@]56CCCN5C[C@H](F)C6)nc4N4CCCC(c5ncn[nH]5)C4)C3)c12 (stereo partly drawn) | 2.59 |
| Nc1cc2n(n1)CCCN(c1nc(OC[C@@]34CCCN3C[C@H](F)C4)nc3c1CCN(c1cc(O)cc4ccc(F)c(Cl)c14)C3)C2 | 2.11 |
| O=C1NC(=O)C2CN(c3nc(OC[C@@]45CCCN4C[C@H](F)C5)nc4c3CCN(c3cc(O)cc5ccc(F)c(Cl)c35)C4)CC12 (stereo partly drawn) | 1.53 |
| Oc1cc(N2CCc3c(nc(OC[C@@]45CCCN4C[C@H](F)C5)nc3N3CCCC4(CC(O)C4)C3)C2)c2c(Br)c(F)ccc2c1 (stereo partly drawn) | 1.79 |
| CCc1c(F)ccc2cc(O)cc(N3CCc4c(nc(OC[C@@]56CCCN5C[C@H](F)C6)nc4N4CCCc5nc(N)sc5C4)C3)c12 | 1.95 |
| CCc1c(F)ccc2cc(O)cc(N3CCc4c(nc(OC[C@@]56CCCN5C[C@H](F)C6)nc4N4C[C@H]5CC[C@@H](O)[C@H]5C4)C3)c12 | 3.19 |
| CCc1c(F)ccc2cc(O)cc(N3CCc4c(nc(OCC5(CN(C)C)CC5)nc4N4CCC[C@@](C)(O)C4)C3)c12 | 1.49 |
| CCc1c(F)ccc2cc(O)cc(N3CCc4c(nc(OC[C@@]56CCCN5C[C@H](F)C6)nc4N4CCOCC(O)C4)C3)c12 (stereo partly drawn) | 1.30 |
| Oc1cc(N2CCc3c(nc(OC[C@@]45CCCN4C[C@H](F)C5)nc3N3CCOCC(n4cccn4)C3)C2)c2c(Br)c(F)ccc2c1 (stereo partly drawn) | 2.16 |
| CCc1c(F)ccc2cc(O)cc(N3CCc4c(nc(OC[C@@]56CCCN5C[C@H](F)C6)nc4N4CCCn5nc(C(=O)N(C)C)c(C)c5C4)C3)c12 | 0.60 |
| CCc1c(F)ccc2cc(O)cc(N3CCc4c(nc(OC[C@@]56CCCN5C[C@H](F)C6)nc4N4CCCC5(CNC(=O)C5)C4)C3)c12 (stereo partly drawn) | 1.08 |
| CCc1c(F)ccc2cc(O)cc(N3CCc4c(nc(OC[C@@]56CCCN5C[C@H](F)C6)nc4N4CCCC5(C4)NC(=O)NC5=O)C3)c12 (stereo partly drawn) | 0.70 |
| CCc1c(F)ccc2cc(O)cc(N3CCc4c(nc(OC[C@@]56CCCN5C[C@H](F)C6)nc4N4CCCn5nc(C(=O)N6CCOCC6)cc5C4)C3)c12 | 0.60 |
| Nc1cc2n(n1)CCCN(c1nc(OC[C@@]34CCCN3C[C@H](F)C4)nc3c1CCN(c1cc(O)cc4ccc(F)c(Br)c14)C3)C2 | 1.79 |
| CCc1c(F)ccc2cc(O)cc(N3CCc4c(nc(OC[C@@]56CCCN5C[C@H](F)C6)nc4N4CC5CC(O)C5C4)C3)c12 (stereo partly drawn) | 2.68 |
| CCc1c(F)ccc2cc(O)cc(N3CCc4c(nc(OC[C@@]56CCCN5C[C@H](F)C6)nc4N4CC5CC(O)CC(C5)C4)C3)c12 (stereo partly drawn) | 3.08 |
| CCc1c(F)ccc2cc(O)cc(N3CCc4c(nc(OC[C@@]56CCCN5C[C@H](F)C6)nc4N4CCCCCC(S(C)(=O)=O)C4)C3)c12 (stereo partly drawn) | 1.57 |
| CCc1c(F)ccc2cc(O)cc(N3CCc4c(nc(OC[C@@]56CCCN5C[C@H](F)C6)nc4N4CCCc5nn(C(=O)N(C)C)cc5C4)C3)c12 | 2.00 |
| Oc1cc(N2CCc3c(nc(OC[C@@]45CCCN4C[C@H](F)C5)nc3N3CCCC4(CC(O)C4)C3)C2)c2c(Cl)c(F)ccc2c1 (stereo partly drawn) | 2.32 |
| C[C@@]1(O)CCCN(c2nc(OC[C@@]34CCCN3C[C@H](F)C4)nc3c2CCN(c2cc(O)cc4ccc(F)c(Cl)c24)C3)C1 | 1.85 |
| O=C1NCC2(CCCN(c3nc(OC[C@@]45CCCN4C[C@H](F)C5)nc4c3CCN(c3cc(O)cc5ccc(F)c(Cl)c35)C4)C2)N1 (stereo partly drawn) | 1.38 |
| CN(C)C(=O)c1cc2n(n1)CCCN(c1nc(OC[C@@]34CCCN3C[C@H](F)C4)nc3c1CCN(c1cc(O)cc4ccc(F)c(Br)c14)C3)C2 | 1.93 |
